Overview of recorded melting point for various compounds
Assay Endpoint: melting point

Compound | Assay Endpoint | Reported Result
CN1C(=NC2CCCC2)SCC1CC(=O)Nc1cc(Cl)cc(Cl)c1.Cl (stereo not drawn) | melting point | 231 to 232.5 °C
CN1C(=NC2CC2)SCC1CC(=O)NCc1ccc(F)cc1.Cl (stereo not drawn) | melting point | 200.5 to 202.5 °C
Cc1ccc(NC(=O)CC2CSC(=NC3CCCC3)N2C)c(Cl)c1.Cl (stereo not drawn) | melting point | 185 to 186.5 °C

====

Compound | melting point
CN1C(=NC2CC2)SCC1CC(=O)Nc1ccc(Br)cc1.Cl (stereo not drawn) | 227 to 228.5 °C
COc1cccc(NC(=O)CC2CSC(=NC3CCCCC3)N2C)c1.Cl (stereo not drawn) [KHG24076] | 156 to 158 °C
CC1SC(=NC2CCCCC2)N(C)C1CC(=O)Nc1ccc(Cl)cc1 (stereo not drawn) [KHG24480] | 262 to 264 °C
COc1ccc(NC(=O)CC2C(C)SC(=NC3CCCCCC3)N2C)cc1 (stereo not drawn) [KHG24485] | 250 to 251 °C
CN1C(=NCC2CCCCC2)SCC1CC(=O)Nc1ccc(Cl)cc1.Cl (stereo not drawn) [KHG24230] | 177.1 °C
CC1SC(=NC2CCCCCC2)N(C)C1CC(=O)Nc1ccc(OC(F)(F)F)cc1.Cl (stereo not drawn) [KHG24647] | 247 to 271 °C

====

Overview of recorded melting point for various compounds

Compound | melting point
CC1SC(=NC2CCCCC2)N(C)C1CC(=O)Nc1ccc(C(C)(C)C)cc1.Cl (centres unmarked) | 255 to 257 °C
CC1SC(=NC2CCCCCC2)N(C)C1CC(=O)Nc1ccccc1F.Cl (centres unmarked) | 197 to 199 °C
CC1SC(=NC2CCCCC2)N(C)C1CC(=O)Nc1ccc(C(F)(F)F)cc1.Cl (centres unmarked) | 190 to 192 °C
CC1SC(=NC2CCCCCC2)N(C)C1CC(=O)Nc1ccc(Br)cc1 (centres unmarked) | 253 to 254 °C
CCCCc1ccc(N=C2SCC(CC(=O)Nc3ccc(Cl)cc3)N2C)cc1.Cl (centres unmarked) | 239 to 241 °C
CN1C(=NC2CC2)SCC1CC(=O)Nc1ccc(Oc2ccccc2)cc1.Cl (centres unmarked) | 219.5 to 220 °C
CN1C(=Nc2ccc(Oc3ccccc3)cc2)SCC1CC(=O)Nc1ccc(Cl)cc1.Cl (centres unmarked) | 238 to 242 °C
CCCCc1ccc(NC(=O)CC2CSC(=NC3CC3)N2C)cc1.Cl (centres unmarked) | 227.5 to 228.5 °C
Cl.O=C(CC1CSC(=NC2CCCCC2)N1Cc1ccccc1)Nc1ccc(Cl)cc1 (centres unmarked) | 199 °C
CN1C(=NC2CC2)SCC1CC(=O)Nc1cc(Cl)cc(Cl)c1.Cl (centres unmarked) | 260.5 to 261 °C
CN1C(=NC2CC2)SCC1CC(=O)NCc1ccc(Cl)cc1.Cl (centres unmarked) | 225.5 to 227 °C
CN1C(=Nc2ccc(Br)cc2)SCC1CC(=O)Nc1ccc(Cl)cc1F.Cl (centres unmarked) | 239 to 240 °C
CC(C)c1ccc(NC(=O)CC2CSC(=Nc3ccc(C#N)cc3)N2C)cc1.Cl (centres unmarked) | 234 to 235 °C
CC1SC(=NC2CCCCC2)N(C)C1CC(=O)Nc1ccc([N+](=O)[O-])cc1.Cl (centres unmarked) | 215 to 217 °C
CCCN1C(=NC23CC4CC(CC(C4)C2)C3)SCC1CC(=O)Nc1ccc(C)cc1Cl.Cl (centres unmarked) | 201 °C
Cl.O=C(CC1CSC(=NC2CCCCC2)N1C1CC1)Nc1cc(C(F)(F)F)cc(C(F)(F)F)c1 (centres unmarked) | 197.3 °C
CC(C)c1ccc(NC(=O)CC2CSC(=Nc3cccc(Br)c3)N2C)cc1.Cl (centres unmarked) | 198 to 201 °C
CC1SC(=NC2CCCCCC2)N(C)C1CC(=O)Nc1cc(Cl)cc(Cl)c1.Cl (centres unmarked) | 248 to 250 °C
CN1C(=NC2CC2)SCC1CC(=O)Nc1ccc(F)cc1Cl.Cl (centres unmarked) | 237 to 239 °C
CN1C(=NC2CCCC2)SCC1CC(=O)Nc1ccc(Oc2ccccc2)cc1.Cl (centres unmarked) | 230 to 230.5 °C

====

Study Target: α1G T-type calcium channel (Homo sapiens, UniProt O43497)
Construct: host or cells: HEK293
Sequence (O43497 whole entry): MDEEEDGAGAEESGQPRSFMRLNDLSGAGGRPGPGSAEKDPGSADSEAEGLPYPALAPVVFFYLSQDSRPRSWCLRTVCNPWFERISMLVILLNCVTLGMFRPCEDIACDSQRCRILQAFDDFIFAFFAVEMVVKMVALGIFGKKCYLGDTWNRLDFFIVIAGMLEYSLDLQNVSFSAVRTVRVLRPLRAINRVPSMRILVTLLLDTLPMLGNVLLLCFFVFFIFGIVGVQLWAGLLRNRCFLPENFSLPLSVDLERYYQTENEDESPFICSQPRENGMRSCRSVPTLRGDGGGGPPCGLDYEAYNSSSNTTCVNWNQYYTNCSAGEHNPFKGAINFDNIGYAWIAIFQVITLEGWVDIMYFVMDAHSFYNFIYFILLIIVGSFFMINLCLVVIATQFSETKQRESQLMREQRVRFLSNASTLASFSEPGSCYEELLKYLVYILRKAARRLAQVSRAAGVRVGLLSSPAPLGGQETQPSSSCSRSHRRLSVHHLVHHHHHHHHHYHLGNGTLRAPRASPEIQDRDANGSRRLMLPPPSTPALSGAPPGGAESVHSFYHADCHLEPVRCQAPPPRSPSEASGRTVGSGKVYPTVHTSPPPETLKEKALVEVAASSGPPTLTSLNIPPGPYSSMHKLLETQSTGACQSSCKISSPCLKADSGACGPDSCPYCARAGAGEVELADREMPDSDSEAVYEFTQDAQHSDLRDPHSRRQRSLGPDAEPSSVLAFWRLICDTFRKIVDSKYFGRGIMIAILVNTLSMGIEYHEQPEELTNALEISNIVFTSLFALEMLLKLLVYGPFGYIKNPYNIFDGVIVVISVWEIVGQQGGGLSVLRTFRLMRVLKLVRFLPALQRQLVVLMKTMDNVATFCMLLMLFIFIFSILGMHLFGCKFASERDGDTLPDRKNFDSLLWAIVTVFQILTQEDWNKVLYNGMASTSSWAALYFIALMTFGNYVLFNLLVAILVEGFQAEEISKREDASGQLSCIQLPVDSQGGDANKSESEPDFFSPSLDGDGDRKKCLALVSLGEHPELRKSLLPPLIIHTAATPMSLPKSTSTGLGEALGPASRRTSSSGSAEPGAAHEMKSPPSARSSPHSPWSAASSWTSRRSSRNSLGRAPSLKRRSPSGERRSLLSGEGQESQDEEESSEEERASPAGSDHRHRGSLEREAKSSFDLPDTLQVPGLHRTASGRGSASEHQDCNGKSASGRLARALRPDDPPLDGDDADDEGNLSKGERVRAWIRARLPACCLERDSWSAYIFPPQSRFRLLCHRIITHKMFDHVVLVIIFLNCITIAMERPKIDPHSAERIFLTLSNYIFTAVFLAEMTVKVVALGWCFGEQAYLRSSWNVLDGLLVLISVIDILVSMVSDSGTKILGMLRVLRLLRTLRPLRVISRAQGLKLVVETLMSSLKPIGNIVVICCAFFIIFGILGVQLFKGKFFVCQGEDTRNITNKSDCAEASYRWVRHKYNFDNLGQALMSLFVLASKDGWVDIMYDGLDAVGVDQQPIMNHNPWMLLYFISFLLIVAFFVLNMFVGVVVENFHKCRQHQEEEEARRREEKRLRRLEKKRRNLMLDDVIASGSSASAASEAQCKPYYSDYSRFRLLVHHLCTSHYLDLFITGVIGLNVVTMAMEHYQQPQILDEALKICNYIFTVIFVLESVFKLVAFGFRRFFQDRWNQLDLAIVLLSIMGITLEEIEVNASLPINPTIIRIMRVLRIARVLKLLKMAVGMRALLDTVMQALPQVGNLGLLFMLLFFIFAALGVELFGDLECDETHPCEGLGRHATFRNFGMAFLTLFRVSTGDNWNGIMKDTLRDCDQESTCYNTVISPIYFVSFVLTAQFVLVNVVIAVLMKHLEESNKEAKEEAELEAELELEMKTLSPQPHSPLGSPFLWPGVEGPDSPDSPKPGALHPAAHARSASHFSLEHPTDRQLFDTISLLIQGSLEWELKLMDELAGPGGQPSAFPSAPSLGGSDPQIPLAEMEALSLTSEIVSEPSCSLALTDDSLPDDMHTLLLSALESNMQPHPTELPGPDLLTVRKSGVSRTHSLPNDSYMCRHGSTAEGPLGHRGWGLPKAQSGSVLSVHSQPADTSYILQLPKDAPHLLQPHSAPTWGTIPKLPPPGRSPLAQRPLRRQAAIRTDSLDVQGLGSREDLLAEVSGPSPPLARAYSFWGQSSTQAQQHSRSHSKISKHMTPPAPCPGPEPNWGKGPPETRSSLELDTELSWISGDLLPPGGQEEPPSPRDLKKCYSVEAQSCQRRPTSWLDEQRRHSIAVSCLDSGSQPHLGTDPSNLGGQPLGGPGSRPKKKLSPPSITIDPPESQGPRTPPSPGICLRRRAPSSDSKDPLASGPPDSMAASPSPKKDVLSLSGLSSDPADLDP
Protocol Details: Assay for % inhibiting activity against T-type calcium channel using FDSS6000 (fluo-3 calcium imaging, KCl activation)
Format: cell-based
Condition Label: HEK293, 10 μM; HEK293 cells stably expressing α1G T-type calcium channel and Kir2.1; compounds of the examples; read-out: FDSS (% inhibition)/10uM
Overview of recorded inhibition at 10 µM for various compounds

Compound | inhibition at 10 µM, %
CN1C(=NC2CCCC2)SCC1CC(=O)Nc1ccc(Cl)cc1F.Cl (stereo not drawn) [KHG24105, hydrochloride] | 40.4
CCCN1C(=NC2CCCCC2)SCC1CC(=O)Nc1ccc(Cl)cc1.Cl (stereo not drawn) [KHG24287, hydrochloride] | 58.5
CCc1ccc(NC(=O)CC2CSC(=NC3CCCCC3)N2Cc2ccccc2)cc1.Cl (stereo not drawn) [KHG24306, hydrochloride] | 53.2
CCN1C(=NC2CCCCC2)SCC1CC(=O)Nc1cc(Cl)cc(Cl)c1.Cl (stereo not drawn) [KHG24414, hydrochloride] | 61
CC(C)N1C(=NC23CC4CC(CC(C4)C2)C3)SCC1CC(=O)Nc1ccc(Oc2ccccc2)cc1.Cl (stereo not drawn) [KHG24833, hydrochloride] | 37
Cc1ccc(NC(=O)CC2CSC(=NC34CC5CC(CC(C5)C3)C4)N2C(C)C)cc1Cl.Cl (stereo not drawn) [KHG24836, hydrochloride] | 48.9
CC1SC(=NC2CCCCCC2)N(C)C1CC(=O)Nc1cc(Cl)cc(Cl)c1.Cl (stereo not drawn) [KHG24644, hydrochloride] | 53.4
Cl.O=C(CC1CSC(=NC2CCCCC2)N1Cc1ccccc1)Nc1ccc(C(F)(F)F)cc1 (stereo not drawn) [KHG24407, hydrochloride] | 48.7
CC(C)c1ccc(NC(=O)CC2CSC(=NCC3CCCCC3)N2C)cc1.Cl (stereo not drawn) [KHG24222, hydrochloride] | 34.8

====

Overview of recorded melting point for various molecules
Assay Endpoint: melting point

Molecule | Reported Result
CN1C(=NC2CCCCC2)SCC1CC(=O)NCc1ccc(Cl)c(Cl)c1.Cl (stereo not shown) [KHG24088] | 215 to 216 °C
CC1SC(=NC2CCCCC2)N(C)C1CC(=O)Nc1ccc(OC(F)(F)F)cc1.Cl (stereo not shown) [KHG24524] | 178 to 180 °C
CC(C)c1ccc(NC(=O)CC2CSC(=NC3CCCC3)N2C)cc1.Cl (stereo not shown) [KHG24115] | 213 to 215.5 °C
CN1C(=NC2CCCC2)SCC1CC(=O)Nc1ccc(Cl)cc1.Cl (stereo not shown) [KHG24106] | 215 to 216 °C
CCCCN1C(=NC2CCCCC2)SCC1CC(=O)Nc1ccc(Br)cc1.Cl (stereo not shown) [KHG24263] | 215.2 °C
CC1SC(=NC2CCCCCC2)N(C)C1CC(=O)Nc1cccc(F)c1.Cl (stereo not shown) [KHG24641] | 247 to 249 °C
CN1C(=NC2CCCC2)SCC1CC(=O)Nc1ccccc1.Cl (stereo not shown) | 231.5 to 233 °C

====

Overview of recorded melting point for various compounds

Compound | melting point
CN1C(=NC2CCCCCC2)SCC1C(=O)Nc1ccccc1Br.Cl (stereo not drawn) [KHG24634] | 232.8 °C
Cc1ccc(NC(=O)CC2CSC(=NC3CCCC3)N2C)c(F)c1.Cl (stereo not drawn) | 189 to 190 °C
COc1ccc(NC(=O)CC2CSC(=NC34CC5CC(CC(C5)C3)C4)N2C)cc1.Cl (stereo not drawn) [KHG24419] | 227 to 229 °C
Cc1cc(NC(=O)CC2CSC(=NC3CCCCC3)N2C)ccc1Br.Cl (stereo not drawn) [KHG24111] | 237 to 238 °C
CCCCc1ccc(NC(=O)CC2CSC(=NC34CC5CC(CC(C5)C3)C4)N2CC)cc1.Cl (stereo not drawn) [KHG24820] | 141 °C
CN1C(=NC2CCCCCC2)SCC1C(=O)Nc1cc(F)ccc1F.Cl (stereo not drawn) [KHG24626] | 187.9 °C
